- Tested on: recombinant virus from patient viral RNA (Example 12)
- assay_name: Recombinant virus assay (MT4/MTT), patient of Example 12 (therapy history RT and protease inhibitors)
- Format: cell-based, HIV-1
- assay_conditions: Human immunodeficiency virus 1; Table 8, Example 12 patient virus, mean; read-out: Anti-HIV-1 activity IC50 (μM) Mean (1)
measured_metric: IC50 (µM)
Report as a plain number; the unit µM is understood.

(Q) Query: IC50; subject: `Cc1cn([C@H]2C[C@H](N=[N+]=[N-])[C@@H](CO)O2)c(=O)[nH]c1=O`
(A) 3.59

(Q) Query: IC50; subject: `CC(C)c1nc(CN(C)C(=O)N[C@H](C(=O)N[C@@H](Cc2ccccc2)C[C@H](O)[C@H](Cc2ccccc2)NC(=O)OCc2cncs2)C(C)C)cs1`
(A) 1.57

(Q) Query: IC50; subject: `CC(C)(C)NC(=O)[C@@H]1C[C@@H]2CCCC[C@@H]2CN1C[C@@H](O)[C@H](Cc1ccccc1)NC(=O)[C@H](CC(N)=O)NC(=O)c1ccc2ccccc2n1`
(A) 0.351

(Q) Query: IC50; subject: `CC(C)(C)NC(=O)[C@@H]1CN(Cc2cccnc2)CCN1C[C@@H](O)C[C@@H](Cc1ccccc1)C(=O)N[C@H]1c2ccccc2C[C@H]1O`
(A) 0.124
